assayProtocol: Quantitative High-Throughput drug screen in 47 multiple myeloma cell lines against the NCATS MIPE library collection: VP6_DJ cell viability assay (AID 1919867); further: nearly all actives have a fitted effect of over 40% in size
settings: ATP luminescence, 48 h; series mostly up to 45.8 µM
Inconclusive results are not listed. The source made the active and inactive calls. The call rests on the fitted dose curve; in most records, active means well fitted cell-killing curve with a large enough effect; inconclusive means small, poorly fitted or top-dose-only effect, or effect the other way; inactive means no such curve, though single readings can be large or run the other way. Non-standard residues stand in square brackets, D forms with d. Residues, ends and D or L forms follow the SMILES beside them. *: point of attachment. Nva = CCC[C@H](N)C(=O)O; Cbz = O=C(OCc1ccccc1)*
Outcome codes: class 1 = active, class 0 = inactive

# compound, assignedLabel
measured = [
    ("CC1(C)[C@H](O[C@H]2O[C@H](C(=O)O)[C@@H](O)[C@H](O)[C@H]2O[C@@H]2O[C@H](C(=O)O)[C@@H](O)[C@H](O)[C@H]2O)CC[C@@]2(C)[C@H]1CC[C@]1(C)[C@H]2C(=O)C=C2[C@H]3C[C@@](C)(C(=O)O)CC[C@]3(C)CC[C@]21C", "class 0"),
    ("FC(F)c1nc2ccccc2n1-c1nc(N2CCOCC2)nc(N2CCOCC2)n1", "class 1"),
    ("O=C(Nc1cc2cc[nH]c2cn1)c1ccccc1", "class 1"),
    ("C=CCNC1=C2C[C@@H](C)C[C@H](OC)[C@@H](O)[C@@H](C)C=C(C)[C@H](OC(N)=O)[C@@H](OC)C=CC=C(C)C(=O)NC(=CC1=O)C2=O", "class 1"),
    ("C=C1C(=O)O[C@H]2[C@@H]1CCC(C)=CCC[C@@]1(C)O[C@@H]21", "class 1"),
    ("C[C@]12CCC(=O)C=C1[C@@H]1CC1[C@H]1[C@H]3[C@@H]4C[C@H]4[C@@]4(CCC(=O)O4)[C@@]3(C)CC[C@H]12 (stereo partly drawn)", "class 0"),
    ("COc1ccc(S(=O)(=O)Nc2cccnc2Nc2ccc(O)cc2)cc1", "class 1"),
    ("CCCNS(=O)(=O)Nc1ncnc(OCCOc2ncc(Br)cn2)c1-c1ccc(Br)cc1", "class 0"),
    ("COc1ccc2cc([S+]([O-])Cc3ncc(C)c(OC)c3C)nc2c1", "class 0"),
    ("CC(C)(O)Cn1c(NC(=O)c2ccc(-c3cn[nH]c3)s2)nc2cc(CN3CCOCC3)ccc21", "class 1"),
    ("CCOC(=O)N1CCN([N+]([O-])=NOc2ccc([N+](=O)[O-])cc2C#N)CC1", "class 1"),
    ("CC(=O)N1CCN(c2ccc(OCc3nn(C)c(C)c3-c3cccc4c(CCCOc5cccc6ccccc56)c(C(=O)O)n(Cc5cccnc5)c34)cc2)CC1", "class 1"),
    ("OCCNC1CCCc2c1[nH]c1ccc(-c3ccccc3)cc21 (stereo not drawn)", "class 1"),
    ("CCC[C@@H](C=O)NC(=O)[C@H](CC(C)C)NC(=O)[C@H](CC(C)C)NC(=O)OCc1ccccc1 (Cbz-Leu-Leu-[Nva]-aldehyde)", "class 1"),
    ("CC(Oc1ccc(O)cc1)(P(=O)(O)O)P(=O)(O)O", "class 0"),
    ("CC(C)Oc1ccc(C(=O)N[C@H](CNC(=O)CN(C)C)Cc2ccc(-c3cn4cccc([C@H](C)O)c4n3)cc2)cc1Cl", "class 1"),
    ("C=C1C[C@@]2(O)O[C@@]3(C[C@H]2C(C)C)[C@H](C)CC[C@H]13", "class 0"),
    ("NC(=O)c1ncn([C@@H]2O[C@H](CO)[C@@H](O)[C@@H]2O)c1O", "class 0"),
]
